Origin of values: patent US9132084B2

Experiment: Plasma pharmacokinetics following a single intravenous and subcutaneous injection of a combination of formoterol and budesonide
Conditions: female, Gottingen, minipig, in vivo, Cmax, formoterol 0.4 μg/kg SC5 (5 sites), combination, female 2-0623
assay_endpoint: Cmax (ng/mL)

> print(dat)
                                   molecule  data.value
1  COc1ccc(CC(C)NCC(O)c2ccc(O)c(NC=O)c2)cc1 (stereo not shown)       0.256

* * *

Assay: in vivo
Conditions: female, Gottingen, minipig, in vivo, sc, 0.04 ug/kg, Tmax
assay_endpoint: Tmax (min)

> print(dat)
                                   compound  data.value
1  OCc1cc(C(O)CNCCCCCCOCCCCc2ccccc2)ccc1O (racemic)           2

* * *

Assay: Plasma pharmacokinetics following a single intravenous and subcutaneous injection of a combination of formoterol and budesonide
Conditions: female, Gottingen, minipig, in vivo, Plasma concentration of formoterol, SC5 0.4 μg/kg, combination, female 2-0623, 0.333 hr
assay_endpoint: concentration at 0.333 hr (ng/mL)

> print(dat)
                                   molecule             assay.endpoint  data.value
1  COc1ccc(CC(C)NCC(O)c2ccc(O)c(NC=O)c2)cc1 (stereo not shown)  concentration at 0.333 hr       0.131

* * *

Experiment: Plasma pharmacokinetics following a single intravenous and subcutaneous injection of a combination of formoterol and budesonide
Conditions: female, Gottingen, minipig, in vivo, iv, Plasma concentration of formoterol, IV 0.4 μg/kg, combination, female 2-0623, 2.00 hr
assay_endpoint: concentration at 2 hr (ng/mL)

> print(dat)
                                   compound         assay.endpoint  measure.unit  data.value
1  COc1ccc(CC(C)NCC(O)c2ccc(O)c(NC=O)c2)cc1 (stereo not shown)  concentration at 2 hr         ng/mL      0.0313

* * *

Test: Plasma pharmacokinetics following a single intravenous and subcutaneous injection of a combination of formoterol and budesonide
Details: female, Gottingen, minipig, in vivo, Tmax, formoterol 0.4 μg/kg SC5 (5 sites), combination, female 2-0623
Description: Formoterol fumarate dehydrate and budesonide were formulated in 2% PEG-400 in saline. 1 male and 1 female non-naive Gottingen minipigs (8 to 12 kg upon receipt per protocol) were utilized. The animals were housed individually. […] Plasma samples were analyzed for formoterol and budesonide using a qualified liquid chromatography/mass spectrometry/mass mass spectrometry (LC/MS/MS) method. The lower limit of quantitation (LLOQ) was 1.00 pg/mL for formoterol and 25.0 pg/mL for budesonide. […]
assay_endpoint: Tmax (min)

> print(dat)
                                   compound  measure.unit  data.value
1  COc1ccc(CC(C)NCC(O)c2ccc(O)c(NC=O)c2)cc1 (stereo not shown) [Formoterol, formoterol]           min           5

* * *

Assay: Plasma pharmacokinetics following single intravenous and subcutaneous injections of salmeterol xinafoate
Details: male, Gottingen, minipig, in vivo, iv
assay_endpoint: concentration at 0.0833 hr (ng/mL)

> print(dat)
                                   compound              assay.endpoint  measure.unit  data.value
1  OCc1cc(C(O)CNCCCCCCOCCCCc2ccccc2)ccc1O (racemic)  concentration at 0.0833 hr         ng/mL        1.38
